# Tested on: Wolbachia pipientis
# protocolNotes: Anti-Wolbachia Cell-Based Screen
# Assay type: functional
# Set-up: scale not given: in the data most compounds retested in dose-response had high values
# statedConditions: 5 µM
Hit rate of the full screen: of about 48,000 compounds, about 13,000 (27%) showed an effect of 50% or more. The list shows a part of the results.
Task for the reader: assign each of the following compounds its reported Percent Effect.

Study these solved cases before continuing.
compound	Percent Effect
CN(C)c1ncc(NS(=O)(=O)c2ccc(OC(F)(F)F)cc2)cn1	123.3%
CCn1ccnc1CN1CCN(CCOc2ccccc2OC)CC1	1.541%
CN(C)c1ccc(C(=O)N2CCCc3cc(OC(F)(F)F)ccc32)cn1	0.3128%
COc1ccccc1OCCCc1cncc(C(N)=O)c1	-13.5%
CN(Cc1cccc(C(F)(F)F)c1)Cc1nc(-c2cnccn2)no1	-14.23%

Your task in this section: give Percent Effect for each listed record.
1. COc1ccccc1OCCCN1CCNC1=O
2. CC(C(=O)NCc1ccc(N2CCCCC2)nc1)n1cncn1 (stereo not drawn)
3. O=S(=O)(Nc1cnc(N2CCOCC2)nc1)c1ccc(C(F)(F)F)cc1
4. Cn1cc(NS(=O)(=O)c2ccc(OC(F)(F)F)cc2)ccc1=O
5. Cc1nc(N(C)C)nc(C)c1NS(=O)(=O)c1ccc(OC(F)(F)F)cc1

1. 93.18%
2. 91.32%
3. -10.38%
4. -16.2%
5. 120.1%

Give one value of Percent Effect per listed compound.
1. COc1ccccc1OCCN1CCC(N2CCNC2=O)CC1
2. O=C(Nc1cc(-c2ccncc2)no1)C1CC1
3. CC(C(=O)NCc1ccnc(N2CCCC2)c1)n1cncn1 (stereo not drawn)

["-7.605%", "-3.278%", "-10.11%"]

Items follow; give Percent Effect for each.
1. CCOc1ccc(S(=O)(=O)Nc2cnc(OC)nc2OC)cc1
2. CC(C(=O)NCc1ccc(N2CCCC2)nc1)n1cncn1 (stereo not drawn)
3. O=S(=O)(Nc1cnc(N2CCCC2)nc1)c1ccc(OC(F)(F)F)cc1
4. COc1ccc(S(=O)(=O)Nc2cnc(N(C)C)nc2)cc1
5. N#Cc1ccccc1OCCN1CCC(N2CCNC2=O)CC1

["-50.06%", "95.49%", "113.1%", "87.85%", "-2.122%"]
